Measured abundance fitness, listed per entry.
B1: Chromodomain-helicase-DNA-binding protein 4, residues 444 to 496; numbered along this chain, Q14839 (parent)
chain: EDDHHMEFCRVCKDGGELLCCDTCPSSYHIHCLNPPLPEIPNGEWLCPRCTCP

# Variants of: B1
# PROCEDURE DETAILS: abundance fitness (aPCA) (normalised: wild type 0, dead -1); higher = more abundant; growth selection in yeast, the domain comes from the species named
# TEST PARAMETERS: Homo sapiens

Please review the entries below; each comes with its answer.
[
  {
    "VARIANT DESIGNATION": "P41Y",
    "abundance fitness": -0.463
  },
  {
    "VARIANT DESIGNATION": "G16W",
    "abundance fitness": -0.906
  },
  {
    "VARIANT DESIGNATION": "D2H",
    "abundance fitness": -0.036
  },
  {
    "VARIANT DESIGNATION": "H29L",
    "abundance fitness": -0.983
  },
  {
    "VARIANT DESIGNATION": "D2Y",
    "abundance fitness": 0.016
  }
]

# lookup: abundance fitness of `Y28W`
-0.259

# lookup: abundance fitness of `T23Y`
-0.084

# lookup: abundance fitness of `C47K`
-0.503
